The reported numbers originate from paper PMC4501059.

test: 28 day oral toxicology study, dog; details: both, beagle, dog, in vivo, po, 100 mg/kg
observable: Cmax (µg/mL)

molecule	observable	readout units	numeric result
C[C@@H]1CN2c3c(cc4c(N5C(=O)OC[C@@H]5C)noc4c3F)CC3(C(=O)NC(=O)NC3=O)[C@H]2[C@H](C)O1 [ETX0914]	Cmax	µg/mL	85

---

test: Dog pharmacokinetics; format: in vivo, Beagle dog; conditions: beagle, dog, plasma
Examples of molecules with documented clearance follow.
observable: clearance

smi	result
Cc1noc2c(F)c3c(cc12)CC1(C(=O)NC(=O)NC1=O)[C@H]1[C@H](C)O[C@H](C)CN31	5.3 mL/min/kg
C[C@@H]1CN2c3c(cc4c(C(=O)NCC(F)(F)F)noc4c3F)CC3(C(=O)NC(=O)NC3=O)[C@H]2[C@H](C)O1	5.8 mL/min/kg
C[C@@H]1CN2c3c(cc4c(N5C(=O)OC[C@@H]5C)noc4c3F)CC3(C(=O)NC(=O)NC3=O)[C@H]2[C@H](C)O1	4 mL/min/kg
Cc1nnc(-c2noc3c(F)c4c(cc23)CC2(C(=O)NC(=O)NC2=O)[C@H]2[C@H](C)O[C@H](C)CN42)o1	4.7 mL/min/kg
C[C@@H]1CN2c3c(cc4c(-n5cncn5)noc4c3F)CC3(C(=O)NC(=O)NC3=O)[C@H]2[C@H](C)O1	4.5 mL/min/kg
